assay_remarks: qHTS RealTime-Glo MT Cell Viability Assay in HEK293 cells - 40 hour (AID 1224874); further: on the % scale 0 is the no-effect control and ±100 the full control effect; nearly all actives have a fitted effect of over 50% in size
experimental_setup: RealTime-Glo luminescence; active compounds read low
Results filed as inconclusive are left out.
measured_quantity: max response (%)
Answers are plain numbers, in %.

# return max response for each item in the list
1. CC(C)NCC(O)c1ccc2ccccc2c1 (stereo not given)
2. N[C@@H](Cc1ccc(O)cc1)C(=O)O
3. C=CCCCCCCCC
4. O=C(CCCCC(=O)Nc1c(I)cc(I)c(C(=O)O)c1I)Nc1c(I)cc(I)c(C(=O)O)c1I
5. CCC[C@@H]1C[C@@H](C(=O)N[C@@H]([C@H]2O[C@H](SC)[C@H](O)[C@@H](O)[C@H]2O)[C@@H](C)O)N(C)C1

Result:
1. -5.31
2. -1.3
3. 1.11
4. -12.6
5. 0.684
